Test system: Culex pipiens pallens
METHOD_NOTES: Larvicidal activity against Culex pipiens pallens (mosquito) at 2 mg/kg
Assay type: functional
RECORDED_ENDPOINT: Activity (%)
One number for each entry, in %.

Use these answered entries as a reference point.
# COMPOUND, NUMERIC_RESULT
records = [
    ("CCc1cc(C2=NC(c3ccc(C(C)(C)C)cc3)CO2)n(C)n1 (stereo unspecified)", 60),
    ("CCCCCOc1ccc(C(CO)NC(=O)c2cc(CC)nn2C)cc1 (stereo unspecified)", 0),
    ("CCc1nn(C)c(C2=NC(c3ccc(C(C)(C)C)cc3)CO2)c1Cl (stereo unspecified)", 100),
    ("CCCCCOc1ccc(C(CO)NC(=O)c2c(Cl)c(CC)nn2C)cc1 (stereo unspecified)", 0),
    ("CCc1cc(C2=NC(c3ccc(Oc4ccccc4)cc3)CO2)n(C)n1 (stereo unspecified)", 0),
]

Please find the next compound below.
Return Activity (reported value) for this compound: CCc1nn(C)c(C(=O)NC(CCl)c2ccc(C(C)(C)C)cc2)c1Cl (stereo unspecified)
100
